# Tested on: Escherichia coli
# PROCEDURE TEXT: Antibacterial activity against Escherichia coli NCIM-2065 after 24 hrs by broth dilution method
# Assay type: functional
# CONDITIONS USED: NCIM-2065, 24 h

# COMPOUND, TESTED ON, MIC
data = [
    ("O=[N+]([O-])c1ccccc1C1CC(c2ccccc2)=NN1C(=S)Nc1nc(Nc2ccc(F)cc2)nc(Nc2ccc(F)cc2)n1 (centres undefined)", "Escherichia coli", "31.2 µg/mL"),
    ("Fc1ccc(Nc2nc(NC(=S)N3N=C(c4ccccc4)CC3c3ccccc3)nc(Nc3ccc(F)cc3)n2)cc1 (centres undefined)", "Escherichia coli", "15.6 µg/mL"),
    ("S=C(Nc1nc(Nc2ccc(Cl)cc2)nc(Nc2ccc(Cl)cc2)n1)N1N=C(c2ccccc2)CC1c1ccc(Cl)cc1 (centres undefined)", "Escherichia coli", "7.81 µg/mL"),
    ("O=[N+]([O-])c1ccccc1C1CC(c2ccccc2)=NN1C(=S)Nc1nc(Nc2ccc(Cl)cc2)nc(Nc2ccc(Cl)cc2)n1 (centres undefined)", "Escherichia coli", "125 µg/mL"),
    ("O=[N+]([O-])c1ccc(C2CC(c3ccccc3)=NN2C(=S)Nc2nc(Nc3ccc(Cl)cc3)nc(Nc3ccc(Cl)cc3)n2)cc1 (centres undefined)", "Escherichia coli", "62.5 µg/mL"),
    ("O=[N+]([O-])c1ccc(C2CC(c3ccccc3)=NN2C(=S)Nc2nc(Nc3cccc([N+](=O)[O-])c3)nc(Nc3cccc([N+](=O)[O-])c3)n2)cc1 (centres undefined)", "Escherichia coli", "62.5 µg/mL"),
    ("Fc1ccc(Nc2nc(NC(=S)N3N=C(c4ccccc4)CC3c3ccc(Cl)cc3)nc(Nc3ccc(F)cc3)n2)cc1 (centres undefined)", "Escherichia coli", "7.81 µg/mL"),
    ("O=[N+]([O-])c1ccc(C2CC(c3ccccc3)=NN2C(=S)Nc2nc(Nc3ccc(F)cc3)nc(Nc3ccc(F)cc3)n2)cc1 (centres undefined)", "Escherichia coli", "31.2 µg/mL"),
    ("C=CC1=C(C(=O)O)N2C(=O)[C@@H](NC(=O)/C(=N\\OCC(=O)O)c3csc(N)n3)[C@H]2SC1 [CEFIXIME]", "Escherichia coli", "3.91 µg/mL"),
]
